Here, each record is paired with measured RFU/s, %, average (cleavage rate, best substrate set to 100%) data.
# TARGET_ENTITY: caspase-2 (Homo sapiens)
# Sequence (P42575 170-333 limits assumed): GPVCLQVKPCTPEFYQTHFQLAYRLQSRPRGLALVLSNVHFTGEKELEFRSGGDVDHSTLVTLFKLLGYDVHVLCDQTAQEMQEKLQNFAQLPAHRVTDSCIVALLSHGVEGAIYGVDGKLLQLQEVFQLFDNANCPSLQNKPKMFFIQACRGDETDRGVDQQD
# Sequence (P42575 348-452 limits assumed): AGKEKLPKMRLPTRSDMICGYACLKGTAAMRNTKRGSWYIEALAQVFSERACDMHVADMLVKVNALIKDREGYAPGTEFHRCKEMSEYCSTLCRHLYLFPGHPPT
# EXPERIMENT_NOTES: Kinetic assay of individual fluorogenic substrates NH-Idc-P4-P3-Dab-Asp-ACC (Example 4)
# Assay type: biochemical
# CONDITION_DETAILS: substrate 10µM, caspase-2 10nM, 37°C; relative to NH-Idc-hGlu-Glu(Chx)-Dab-Asp-ACC

Field: example entries. Status: answers known.
SUBSTANCE | TARGET_ENTITY | RESULT
NH-Idc-Ile-Glu-Dab-Asp-ACC | caspase-2 (Homo sapiens) | 0,8%
NH-Idc-hLeu-Val-Dab-Asp-ACC | caspase-2 (Homo sapiens) | 0,0%

Which RFU/s, %, average (cleavage rate, best substrate set to 100%) is reported for this substance? `NH-Idc-Asp-Glu-Dab-Asp-ACC`
0,2%

Okay, and `NH-Idc-Ile-Abu-Dab-Asp-ACC` ?
0,0%

Quick one: `NH-Idc-Asp-Abu-Dab-Asp-ACC`
0,0%

Can you check `NH-Idc-Leu-Abu-Dab-Asp-ACC` next?
0,0%

Repeat for the following substance: `NH-Idc-hLeu-Glu-Dab-Asp-ACC`
0,0%

`NH-Idc-hLeu-Abu-Dab-Asp-ACC` , same question.
0,0%

Now this one: `NH-Idc-Leu-Glu-Dab-Asp-ACC`
0,7%

Repeat with `NH-Idc-Leu-Val-Dab-Asp-ACC`
0,0%

Repeat for the following substance: `NH-Idc-hGlu-Abu-Dab-Asp-ACC`
26,2%

Same again, this time with `NH-Idc-Ile-Val-Dab-Asp-ACC`
0,0%

Queued: `NH-Idc-Asp-Val-Dab-Asp-ACC`
0,3%
